Target: Bifunctional aspartokinase/homoserine dehydrogenase 1 (Escherichia coli (strain K12), UniProt P00561)
Sequence (P00561 whole entry): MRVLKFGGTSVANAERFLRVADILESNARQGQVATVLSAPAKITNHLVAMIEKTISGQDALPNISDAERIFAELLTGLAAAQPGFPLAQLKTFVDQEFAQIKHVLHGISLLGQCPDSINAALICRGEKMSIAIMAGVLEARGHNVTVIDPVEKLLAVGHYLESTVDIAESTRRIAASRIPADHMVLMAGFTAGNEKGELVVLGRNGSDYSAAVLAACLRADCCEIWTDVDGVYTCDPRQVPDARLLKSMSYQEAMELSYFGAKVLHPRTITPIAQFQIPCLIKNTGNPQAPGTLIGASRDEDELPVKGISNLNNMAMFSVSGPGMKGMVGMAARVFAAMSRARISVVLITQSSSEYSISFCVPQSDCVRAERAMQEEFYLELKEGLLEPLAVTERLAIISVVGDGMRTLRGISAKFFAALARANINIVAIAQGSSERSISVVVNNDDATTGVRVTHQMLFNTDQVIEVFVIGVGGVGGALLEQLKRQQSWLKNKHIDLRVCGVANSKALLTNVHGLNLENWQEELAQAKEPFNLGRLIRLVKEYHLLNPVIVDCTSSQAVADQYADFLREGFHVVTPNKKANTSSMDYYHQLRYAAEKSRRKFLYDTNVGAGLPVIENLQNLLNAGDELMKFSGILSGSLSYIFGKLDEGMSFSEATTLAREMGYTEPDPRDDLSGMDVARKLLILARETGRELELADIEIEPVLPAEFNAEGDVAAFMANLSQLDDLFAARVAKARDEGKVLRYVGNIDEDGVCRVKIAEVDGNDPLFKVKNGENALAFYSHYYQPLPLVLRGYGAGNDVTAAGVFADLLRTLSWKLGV
Test: Inhibition Assay
Recorded Ki values for a group of molecules are listed next.

Below: 5 molecules and their reported Ki.
> print(dat)
                                   molecule  reading
1          NC(C(=O)O)C(=O)O [Aminomalonate]    23 mM
2  NCC[C@H](N)C(=O)O [2,4-Diaminobutanoate]    10 mM
3                           C[C@H](N)C(=O)O    99 mM
4  NC(CCP(=O)(O)O)C(=O)O (stereo not drawn) [DL-2-amino-4-phosphonobutyrate]    61 mM
5                    NCC(O)C(=O)O (racemic)    30 mM

## Task Indicate the recorded Ki value for this molecule: N[C@@H](CC(=O)NO)C(=O)O [D-aspartate-beta-hydroxamate]
## Result 16 mM

## Task Note down Ki recorded for CCC(N)C(=O)O (centres undefined) [2-Aminobutyrate]
## Result 5 mM

## Task Quote Ki reported for "COC(=O)C[C@H](N)C(=O)OC" please.
## Result 71 mM

## Task Look up Ki of NC(CC(=O)O)CC(=O)O [3-Aminoglutarate] and report it.
## Result 45 mM
